targetSystem: AURKA (Homo sapiens)
Sequence (O14965 whole entry): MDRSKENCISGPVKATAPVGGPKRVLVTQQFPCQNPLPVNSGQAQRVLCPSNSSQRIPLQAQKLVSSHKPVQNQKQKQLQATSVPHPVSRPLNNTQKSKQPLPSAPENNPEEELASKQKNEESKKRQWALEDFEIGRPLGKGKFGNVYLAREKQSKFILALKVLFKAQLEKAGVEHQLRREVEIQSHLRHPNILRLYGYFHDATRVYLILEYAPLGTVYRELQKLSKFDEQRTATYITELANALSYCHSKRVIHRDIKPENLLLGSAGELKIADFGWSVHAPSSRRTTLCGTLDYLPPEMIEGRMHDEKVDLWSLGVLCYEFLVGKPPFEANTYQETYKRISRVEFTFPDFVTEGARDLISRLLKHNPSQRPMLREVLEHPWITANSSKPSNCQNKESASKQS
methodNotes: KINOMEscan competition binding
protocolConditions: read-out: %Inh AURKA
assayMetric: inhibition at 1 µM
I'd appreciate it if you included the unit after the number.

Cc1ccc(NC(=O)Nc2cccc(C(F)(F)F)c2)cc1 [UNC10225187A] = 0%
COc1cccc(OC)c1C(=O)Nc1cccc(-c2nn3ccccc3c2-c2ccnc(Nc3cccc(F)c3)n2)c1 [UNC10225310A] = 32%
CS(=O)(=O)Cc1ccc(Nc2nccc(-c3c(-c4cccc(NC(=O)C5CCCCC5)c4)nn4ncccc34)n2)cc1 [UNC10225159A] = 9%

Suppose we examine the compound Cn1cc(-c2cnc(N)c3c(-c4ccc5c(c4)CCN5C(=O)Cc4ccccc4)csc23)cn1 [UNC10225012A] ; what inhibition at 1 µM value has been reported?
24%

Suppose we examine the compound O=c1cc(N2CCOCC2)nc2n(Cc3cccc(Cl)c3Cl)c(C3CC3)nn12 [UNC10225469A] ; what inhibition at 1 µM value has been reported?
0%

====

targetSystem: ERK1 (Homo sapiens, UniProt P27361)
Sequence (P27361 whole entry): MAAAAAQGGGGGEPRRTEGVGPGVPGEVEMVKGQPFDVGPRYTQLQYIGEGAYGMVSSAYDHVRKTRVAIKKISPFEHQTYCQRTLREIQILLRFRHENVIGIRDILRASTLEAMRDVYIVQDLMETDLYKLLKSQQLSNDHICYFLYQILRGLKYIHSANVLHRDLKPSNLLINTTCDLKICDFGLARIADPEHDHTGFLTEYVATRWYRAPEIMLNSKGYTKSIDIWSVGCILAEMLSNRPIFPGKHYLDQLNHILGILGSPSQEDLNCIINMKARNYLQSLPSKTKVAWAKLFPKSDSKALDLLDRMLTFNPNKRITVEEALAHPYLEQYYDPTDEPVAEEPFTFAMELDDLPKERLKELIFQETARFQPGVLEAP
methodNotes: KINOMEscan competition binding
protocolConditions: read-out: %Inh ERK1
The following molecules are listed with their measured inhibition at 1 µM values.
Give just the numeric value; % need not be written.

Examples from the recorded data:
Cn1cc(-c2cnc(N)c3c(-c4ccc5c(c4)CCN5C(=O)Cc4ccccc4)csc23)cn1 [UNC10225012A] = 0
Cc1ccc(NC(=O)Nc2cccc(C(F)(F)F)c2)cc1 [UNC10225187A] = 0
COc1cccc(OC)c1C(=O)Nc1cccc(-c2nn3ccccc3c2-c2ccnc(Nc3cccc(F)c3)n2)c1 [UNC10225310A] = 1

State its inhibition at 1 µM on ERK1 (Homo sapiens, UniProt P27361): CS(=O)(=O)Cc1ccc(Nc2nccc(-c3c(-c4cccc(NC(=O)C5CCCCC5)c4)nn4ncccc34)n2)cc1 [UNC10225159A]
2

State its inhibition at 1 µM on ERK1 (Homo sapiens, UniProt P27361): O=c1cc(N2CCOCC2)nc2n(Cc3cccc(Cl)c3Cl)c(C3CC3)nn12 [UNC10225469A]
0

====

targetSystem: UniProtKB Q13873
Sequence (Q13873 27-1038): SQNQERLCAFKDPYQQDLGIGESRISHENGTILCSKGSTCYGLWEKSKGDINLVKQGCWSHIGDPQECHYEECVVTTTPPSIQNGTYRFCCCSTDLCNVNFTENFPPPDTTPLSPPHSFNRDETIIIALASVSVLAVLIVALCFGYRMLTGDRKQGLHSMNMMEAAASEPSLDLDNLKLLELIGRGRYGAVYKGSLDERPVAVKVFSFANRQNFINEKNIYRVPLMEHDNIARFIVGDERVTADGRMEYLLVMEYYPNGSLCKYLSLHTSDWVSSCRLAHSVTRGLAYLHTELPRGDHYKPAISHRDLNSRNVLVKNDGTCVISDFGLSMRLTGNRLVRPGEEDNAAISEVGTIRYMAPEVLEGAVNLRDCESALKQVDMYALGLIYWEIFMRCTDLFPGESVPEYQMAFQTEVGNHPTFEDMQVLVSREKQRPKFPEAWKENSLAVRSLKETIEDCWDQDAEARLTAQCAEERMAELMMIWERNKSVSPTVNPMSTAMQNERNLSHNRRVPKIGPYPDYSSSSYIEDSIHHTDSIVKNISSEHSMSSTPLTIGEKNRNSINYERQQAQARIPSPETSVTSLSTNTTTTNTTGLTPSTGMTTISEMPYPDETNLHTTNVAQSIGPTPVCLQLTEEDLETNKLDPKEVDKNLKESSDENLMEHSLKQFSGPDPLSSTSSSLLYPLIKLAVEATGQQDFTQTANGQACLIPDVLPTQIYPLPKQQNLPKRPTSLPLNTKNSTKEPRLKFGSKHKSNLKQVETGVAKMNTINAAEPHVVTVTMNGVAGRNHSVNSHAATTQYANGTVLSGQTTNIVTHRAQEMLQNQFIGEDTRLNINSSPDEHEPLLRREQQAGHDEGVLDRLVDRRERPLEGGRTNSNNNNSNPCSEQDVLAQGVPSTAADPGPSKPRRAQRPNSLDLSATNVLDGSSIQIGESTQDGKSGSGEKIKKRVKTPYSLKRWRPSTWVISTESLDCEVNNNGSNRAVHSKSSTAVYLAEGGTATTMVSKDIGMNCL
methodNotes: KINOMEscan competition binding
protocolConditions: read-out: %Inh BMPR2
The following compounds are listed with their measured inhibition at 1 µM values.

CS(=O)(=O)Cc1ccc(Nc2nccc(-c3c(-c4cccc(NC(=O)C5CCCCC5)c4)nn4ncccc34)n2)cc1 [UNC10225159A] = 24%
COc1cccc(OC)c1C(=O)Nc1cccc(-c2nn3ccccc3c2-c2ccnc(Nc3cccc(F)c3)n2)c1 [UNC10225310A] = 0%

Suppose we examine the compound O=c1cc(N2CCOCC2)nc2n(Cc3cccc(Cl)c3Cl)c(C3CC3)nn12 [UNC10225469A] ; what inhibition at 1 µM value has been reported?
13%

Suppose we examine the compound Cc1ccc(NC(=O)Nc2cccc(C(F)(F)F)c2)cc1 [UNC10225187A] ; what inhibition at 1 µM value has been reported?
1%

Suppose we examine the compound Cn1cc(-c2cnc(N)c3c(-c4ccc5c(c4)CCN5C(=O)Cc4ccccc4)csc23)cn1 [UNC10225012A] ; what inhibition at 1 µM value has been reported?
6%

====

The following molecules are listed with their measured inhibition at 1 µM values.
targetSystem: JAK2(JH1domain-catalytic) (Homo sapiens)
Sequence (O60674 840-1132 limits assumed): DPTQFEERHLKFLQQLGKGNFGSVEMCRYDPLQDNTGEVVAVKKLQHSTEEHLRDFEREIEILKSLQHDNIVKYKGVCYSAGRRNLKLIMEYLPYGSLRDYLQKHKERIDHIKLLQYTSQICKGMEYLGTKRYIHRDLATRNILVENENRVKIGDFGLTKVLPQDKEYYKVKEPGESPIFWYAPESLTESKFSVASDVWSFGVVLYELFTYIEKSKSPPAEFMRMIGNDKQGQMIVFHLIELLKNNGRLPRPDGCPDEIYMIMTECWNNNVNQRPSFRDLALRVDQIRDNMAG
methodNotes: KINOMEscan competition binding
protocolConditions: read-out: %Inh JAK2(JH1domain-catalytic)
Give just the numeric value; % need not be written.

State its inhibition at 1 µM on JAK2(JH1domain-catalytic) (Homo sapiens): Cn1cc(-c2cnc(N)c3c(-c4ccc5c(c4)CCN5C(=O)Cc4ccccc4)csc23)cn1 [UNC10225012A]
26

State its inhibition at 1 µM on JAK2(JH1domain-catalytic) (Homo sapiens): CS(=O)(=O)Cc1ccc(Nc2nccc(-c3c(-c4cccc(NC(=O)C5CCCCC5)c4)nn4ncccc34)n2)cc1 [UNC10225159A]
16

State its inhibition at 1 µM on JAK2(JH1domain-catalytic) (Homo sapiens): COc1cccc(OC)c1C(=O)Nc1cccc(-c2nn3ccccc3c2-c2ccnc(Nc3cccc(F)c3)n2)c1 [UNC10225310A]
3

State its inhibition at 1 µM on JAK2(JH1domain-catalytic) (Homo sapiens): Cc1ccc(NC(=O)Nc2cccc(C(F)(F)F)c2)cc1 [UNC10225187A]
0

State its inhibition at 1 µM on JAK2(JH1domain-catalytic) (Homo sapiens): O=c1cc(N2CCOCC2)nc2n(Cc3cccc(Cl)c3Cl)c(C3CC3)nn12 [UNC10225469A]
6
